Listed below: TC50 cytotoxicity values for each entry.
- Test system: DLD1 NRF2-GOF
- method.summary: TC50 cytotoxicity; higher = less toxic
- condition.info: 72 h; CellTox Green cytotoxicity

{"compound": "CCC(C)n1ncn(-c2ccc(N3CCN(c4ccc(OCC5COC(Cn6cncn6)(c6ccc(Cl)cc6Cl)O5)cc4)CC3)cc2)c1=O (stereo not drawn) [Itraconazole]", "TC50 cytotoxicity": "> 5 µM"}
{"compound": "C[C@H]1Oc2cc(cnc2N)-c2c(nn(C)c2C#N)CN(C)C(=O)c2ccc(F)cc21", "TC50 cytotoxicity": "> 1 µM"}
{"compound": "Nc1cc(C(F)(F)F)c(-c2cc(N3CCOCC3)nc(N3CCOCC3)n2)cn1 [Buparlisib]", "TC50 cytotoxicity": "> 10 µM"}
{"compound": "CC(=O)Nc1cccc(-n2c(=O)n(C3CC3)c(=O)c3c(Nc4ccc(I)cc4F)n(C)c(=O)c(C)c32)c1 [Trametinib]", "TC50 cytotoxicity": "> 0.25 µM"}
{"compound": "CN(C)Cc1c(C(=O)NCCOc2ccc(C(=O)NO)cc2)oc2ccccc12 [Abexinostat]", "TC50 cytotoxicity": "> 10 µM"}
{"compound": "CCC1(c2ccc(N)cc2)CCC(=O)NC1=O (stereo not drawn) [Aminoglutethimide]", "TC50 cytotoxicity": "> 10 µM"}
{"compound": "C[C@]1(O)C[C@@H](c2nc(-c3ccc4ccc(-c5ccccc5)nc4c3)c3c(N)nccn32)C1 [Linsitinib]", "TC50 cytotoxicity": "> 10 µM"}
{"compound": "CC[C@H](Nc1ncnc2[nH]cnc12)c1nc2cccc(F)c2c(=O)n1-c1ccccc1 [Idelalisib]", "TC50 cytotoxicity": "> 10 µM"}

---

Listed below: TC50 cytotoxicity values for each entry.
- System: DLD1 NRF2-GOF
- method.summary: TC50 cytotoxicity; higher = less toxic
- condition.info: 72 h; CellTox Green cytotoxicity
quantity.kind: TC50 cytotoxicity

{"structure.smiles.string": "C=CC(=O)Nc1cc(Nc2nccc(-c3cn(C)c4ccccc34)n2)c(OC)cc1N(C)CCN(C)C", "quantity.kind": "TC50 cytotoxicity", "experimental.value": "> 2.5 µM"}
{"structure.smiles.string": "CCCCOc1nc(N)c2c(n1)N(Cc1cccc(CN3CCCC3)c1)CC(=O)N2", "quantity.kind": "TC50 cytotoxicity", "experimental.value": "> 10 µM"}
{"structure.smiles.string": "O=C(CCCCCCC(=O)Nc1ccc([C@H]2O[C@@H](CSc3nc(-c4ccccc4)c(-c4ccccc4)o3)C[C@@H](c3ccc(CO)cc3)O2)cc1)NO", "quantity.kind": "TC50 cytotoxicity", "experimental.value": "> 10 µM"}
{"structure.smiles.string": "CC1(C)CNc2cc(NC(=O)c3cccnc3NCc3ccncc3)ccc21", "quantity.kind": "TC50 cytotoxicity", "experimental.value": "> 10 µM"}

---

- System: DLD1 NRF2-GOF
- method.summary: drug sensitivity score (DSS) cytotoxicity (DSS score); higher = more toxic; extreme values may be limits of the assay
- condition.info: 72 h; CellTox Green cytotoxicity
quantity.kind: drug sensitivity score

{"compound": "CN(CC(=O)N(Cc1ccc(C2CCCCC2)cc1)c1ccc(C(=O)O)cc1)S(=O)(=O)c1c(F)c(F)c(F)c(F)c1F [SH-4-54]", "target.under.test": "DLD1 NRF2-GOF", "experimental.value": 0}
{"compound": "COc1cc2nccc(Oc3ccc(NC(=O)C4(C(=O)Nc5ccc(F)cc5)CC4)cc3)c2cc1OC [Cabozantinib]", "target.under.test": "DLD1 NRF2-GOF", "experimental.value": 0}
{"compound": "COc1cc2c(cc1OCCCN1CCCC1)N=C(N)C21CCC1 [A-366]", "target.under.test": "DLD1 NRF2-GOF", "experimental.value": 0}
{"compound": "CC(=O)O[C@]1(C(C)=O)CC[C@H]2[C@@H]3C=C(C)C4=CC(=O)CC[C@]4(C)[C@H]3CC[C@@]21C [Megestrol acetate]", "target.under.test": "DLD1 NRF2-GOF", "experimental.value": 0}
{"compound": "Cc1ccc(=O)n(-c2ccccc2)c1 [Pirfenidone]", "target.under.test": "DLD1 NRF2-GOF", "experimental.value": 0}
{"compound": "Nc1nc(Cl)nc2c1ncn2[C@@H]1O[C@H](CO)[C@@H](O)[C@@H]1F [Clofarabine]", "target.under.test": "DLD1 NRF2-GOF", "experimental.value": 0}
{"compound": "Cc1cc2c(C(=O)NC[C@H](C)c3ccccc3)c(O)c(O)cc2c(O)c1-c1c(C)cc2c(C(=O)NC[C@H](C)c3ccccc3)c(O)c(O)cc2c1O [Sabutoclax]", "target.under.test": "DLD1 NRF2-GOF", "experimental.value": 0}
{"compound": "Cc1[nH]c2ccccc2c1CCNCc1ccc(/C=C/C(=O)NO)cc1 [Panobinostat]", "target.under.test": "DLD1 NRF2-GOF", "experimental.value": 1.1}
{"compound": "O=C(Nc1cc(Oc2cc(F)c(NC(=O)C3(C(=O)Nc4ccc(F)cc4)CC3)cc2F)ccn1)C1CC1 [Altiratinib]", "target.under.test": "DLD1 NRF2-GOF", "experimental.value": 0.2}
{"compound": "C=CC(=O)Nc1cccc(Nc2nc(Nc3ccc(OCCOC)cc3)ncc2F)c1 [Spebrutinib]", "target.under.test": "DLD1 NRF2-GOF", "experimental.value": 0}
{"compound": "COc1cc(OC2CCN(C)CC2)ccc1Nc1ncc2c(n1)n(C1CCCC1)c(=O)n2C [AZ 3146]", "target.under.test": "DLD1 NRF2-GOF", "experimental.value": 1.6}
{"compound": "COC(=O)c1ccc2c(c1)[nH]c1ncnc(NCCCN3CCCCC3)c12 [UM729]", "target.under.test": "DLD1 NRF2-GOF", "experimental.value": 0}
{"compound": "CC(C)[C@@H](CS(=O)(=O)C(C)C)N1C(=O)[C@@](C)(CC(=O)O)C[C@H](c2cccc(Cl)c2)[C@H]1c1ccc(Cl)cc1 [AMG-232]", "target.under.test": "DLD1 NRF2-GOF", "experimental.value": 0}
{"compound": "COc1cc2c(Oc3ccc4[nH]c(C)cc4c3F)ncnc2cc1OCCCN1CCCC1 [Cediranib]", "target.under.test": "DLD1 NRF2-GOF", "experimental.value": 0}
{"compound": "O=C(/C=C\\n1cnc(-c2cc(C(F)(F)F)cc(C(F)(F)F)c2)n1)NNc1cnccn1 [Selinexor]", "target.under.test": "DLD1 NRF2-GOF", "experimental.value": 2.5}
{"compound": "N#Cc1ccc2[nH]c(O)c(-c3ccc(CN4CCOCC4)cn3)c2c1 [AZD-1080]", "target.under.test": "DLD1 NRF2-GOF", "experimental.value": 0}

---

Listed below: drug sensitivity score values for each entry.
- Tested on: DLD1 NRF2-GOF
- method.summary: drug sensitivity score (DSS) cytotoxicity (DSS score); higher = more toxic; extreme values may be limits of the assay
- condition.info: 72 h; CellTox Green cytotoxicity

{"compound": "COc1cc(N2CCN(C)CC2)ccc1Nc1nccc(-c2cn(C)c3cnccc23)n1", "drug sensitivity score": 0}
{"compound": "C=CC(=O)Nc1cccc(Nc2nc(Nc3ccc(N4CCN(C(C)=O)CC4)cc3OC)ncc2C(F)(F)F)c1", "drug sensitivity score": 0.7}
{"compound": "Cc1nc2cccc(N)c2c(=O)n1C1CCC(=O)NC1=O (stereo not drawn)", "drug sensitivity score": 0}
{"compound": "O=C(O)CC1CC(c2ccccc2)=NO1 (stereo not drawn)", "drug sensitivity score": 0}
{"compound": "Nc1nc(F)nc2c1ncn2[C@@H]1O[C@H](CO)[C@@H](O)[C@@H]1O", "drug sensitivity score": 0}
{"compound": "O=C(CCCCCCNC(=O)c1cnc(N(c2ccccc2)c2ccccc2)nc1)NO", "drug sensitivity score": 0}
{"compound": "NS(=O)(=O)OC[C@@H]1C[C@@H](n2ccc3c(N[C@H]4CCc5ccccc54)ncnc32)C[C@@H]1O", "drug sensitivity score": 0}
{"compound": "O=C(O)CCCCC(CCSCc1ccccc1)SCc1ccccc1 (stereo not drawn)", "drug sensitivity score": 0}
{"compound": "Nc1nc(Nc2ccc3c(c2)CC[C@@H](N2CCCC2)CC3)nn1-c1cc2c(nn1)-c1ccccc1CCC2", "drug sensitivity score": 0}
{"compound": "Nc1cc(C(F)(F)F)c(-c2cc(N3CCOCC3)nc(N3CCOCC3)n2)cn1", "drug sensitivity score": 0}
{"compound": "O=C(c1cccc(Cl)c1F)N1CCN(Cc2cccc(Nc3nccs3)n2)CC1", "drug sensitivity score": 2.9}
{"compound": "C=C(c1ccc(C(=O)O)cc1)c1cc2c(cc1C)C(C)(C)CCC2(C)C", "drug sensitivity score": 0}
{"compound": "CCC1(c2ccc(N)cc2)CCC(=O)NC1=O (stereo not drawn) [Aminoglutethimide]", "drug sensitivity score": 0}
{"compound": "C[C@H]1C[C@@H](n2c(Nc3ccc(OC(F)(F)F)cc3)nc3cc(CCC(=O)O)ccc32)CC(C)(C)C1", "drug sensitivity score": 0}
{"compound": "C=CC(=O)Nc1cc2c(Nc3ccc(F)c(Cl)c3)ncnc2cc1OCCCN1CCOCC1", "drug sensitivity score": 5.5}
{"compound": "COc1cccc2c1c(O)c(C(=O)N(C)c1ccc(C(F)(F)F)cc1)c(=O)n2C", "drug sensitivity score": 0}
{"compound": "CN(c1ncccc1CNc1nc(Nc2ccc3c(c2)CC(=O)N3)ncc1C(F)(F)F)S(C)(=O)=O", "drug sensitivity score": 0}
{"compound": "N#CC(c1ccnc(OCc2ccc(CN3CCOCC3)cc2)n1)c1nc2ccccc2s1 (stereo not drawn)", "drug sensitivity score": 0}
